Each recorded value in this set is attributed to patent US9714249B2.

Recorded measurements of IC50, one per entry
Target: BRD4-NUT-fusion (Homo sapiens (Human), UniProt O60885+Q86Y26)
Assay: Nut-foci formation assay (HCS) in HCC2494 NUT midline carcinoma cells
Settings: 24 hours, nuclear BRD4-NUT foci, immunofluorescence
Unit µM implied. Number only.

As a guide, the following entries are already answered.
Cc1nn(C)c2c1C(=O)N(c1cc(C)c(=O)n(C)c1)C2c1ccc(Cl)cc1 (stereo not shown) | 0.108
Cc1nn(C2CC2)c2c1C(=O)N(c1cc(C)c(=O)n(C)c1)C2c1ccc(Cl)cc1 (stereo not shown) | 0.0417
COc1ncccc1-n1nc2c(c1C)C(=O)N(c1cc(C)c(=O)n(C)c1)C2c1ccc(Cl)cc1 (stereo not shown) [Example 17b] | 0.0403

(Q) Quick check: IC50 on BRD4-NUT-fusion (Homo sapiens (Human), UniProt O60885+Q86Y26), item COCCn1nc(C2CC2)c2c1C(c1ccc(Cl)cc1)N(c1cc(C)c(=O)n(C)c1)C2=O (stereo not shown) ?
(A) 0.0299
